protocol: protein stability index of a GFP-peptide fusion (GPS, HEK-293T) (PSI 1-6); higher = more stable;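 note: 24-mer peptide tiles fused after GFP, lentivirally expressed, FACS-sorted into six equal bins by GFP/DsRed ratio, decoded by Illumina sequencing, PSI is the read-weighted mean bin number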
measurementContext: treatment: DMSO; c terminus: a fixed tail appended
Classify by measured protein stability index: Yes if it is equal to or exceeds 3, No if it is smaller.

macromoleculesequence="APNSLSAPTMLHNSSGDFSQAHST [TRAF3IP2]" assignedclass=Yes
macromoleculesequence="GHEEWVGSAYLFVESSLDKVVLSD [TRADD]" assignedclass=No
macromoleculesequence="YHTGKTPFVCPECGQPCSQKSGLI [ZNF649]" assignedclass=No
macromoleculesequence="GPRRLVSCLSSQSSALSQSGGGST [SPACA3]" assignedclass=Yes
macromoleculesequence="QNCKKKLGKLPPQYALELLTVYAW [OAS1]" assignedclass=No
macromoleculesequence="LENVFSSLTDDKYDVAMNRAKDLV [GOLPH3L]" assignedclass=Yes
macromoleculesequence="AEDWFFSKTEELNREVATNSELVQ [KRT17]" assignedclass=Yes
macromoleculesequence="RVFLFQAPSKEEMLSWILRINLVA [PSD2]" assignedclass=No
macromoleculesequence="IAHRGERRGIGGIFFDDLDSPSKE [CPOX]" assignedclass=Yes
macromoleculesequence="SSHFLEQTLDKKLMSDLRRKRTAH [INTS4]" assignedclass=Yes
macromoleculesequence="PPETSLPYKWVVEAANLLIPAVGS [MYBL2]" assignedclass=No
macromoleculesequence="VCTFTYLLVGAAVFDALESDHEMR [KCNK9]" assignedclass=No
macromoleculesequence="GSVALGPVCPTVCPPGGIHQVTVN [KRT71]" assignedclass=Yes

###

protocol: protein stability index of a GFP-peptide fusion (GPS, HEK-293T) (PSI 1-6); higher = more stable
measurementContext: treatment: DMSO; c terminus: a fixed tail appended
protein stability index reference
readoutType: protein stability index

macromoleculesequence="HVAAAVLRIRSVEGRKKAFSTCGS [OR3A1]" readouttype="protein stability index" valuemeasured=2.3
macromoleculesequence="QEFAARAAKQLEYQQLEDDKLSQK [EPB41L3]" readouttype="protein stability index" valuemeasured=5.17
macromoleculesequence="SQDVSDCYLELFPAHLYFQAHGSE [PLEKHN1]" readouttype="protein stability index" valuemeasured=2.49
macromoleculesequence="TGPLQPQPKKPEDEPQETAYRTQV [PKD2L1]" readouttype="protein stability index" valuemeasured=5.11
macromoleculesequence="SESSGQTHLEGDTVQIICNTGYRL [CFHR2]" readouttype="protein stability index" valuemeasured=3.34
macromoleculesequence="RRLLRRLSPSRGVAQCLRDLVAMQ [ZSWIM9]" readouttype="protein stability index" valuemeasured=2.49
macromoleculesequence="NEGLMKWENRHEGVFKFLRSEAVA [ELF3]" readouttype="protein stability index" valuemeasured=3.01
macromoleculesequence="RSRREQFSRAPVSALPLAPNHLGG [STX5]" readouttype="protein stability index" valuemeasured=3.46
macromoleculesequence="LLASSDAALSASMASLLEDLSHIE [SERTAD1]" readouttype="protein stability index" valuemeasured=3.06
macromoleculesequence="GVGGWRDYGVDPSQFSGTLMRTCE [PPTC7]" readouttype="protein stability index" valuemeasured=2.81
macromoleculesequence="LESSYNDEMLSYLPGGTTGLQLPS [TFE3]" readouttype="protein stability index" valuemeasured=3.94
macromoleculesequence="DGLREALANLRGLSEEERSEKAML [CCDC89]" readouttype="protein stability index" valuemeasured=4.93
macromoleculesequence="QSQLICILKRRSDEALERCQILEL [CCDC89]" readouttype="protein stability index" valuemeasured=2.52
